# subject.of.test: T1, Human CD3eg linker (human)
# T1 construct: Single chain: epsilon and gamma subunits of human CD3 joined by a 29-mer linker, Flag-tag at the C-terminus; also called recombinant human CD3
# T1 chain: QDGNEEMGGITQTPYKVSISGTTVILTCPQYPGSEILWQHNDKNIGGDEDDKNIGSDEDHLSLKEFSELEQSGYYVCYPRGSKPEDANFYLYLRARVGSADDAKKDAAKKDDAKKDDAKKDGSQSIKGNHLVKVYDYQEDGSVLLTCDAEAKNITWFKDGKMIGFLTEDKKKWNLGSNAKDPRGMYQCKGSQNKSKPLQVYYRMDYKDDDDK
# test.name: Biacore SPR, vs template H183/L072
quantity.measured: fold change of affinity
Write your answer as a measured quantity: the number, then the unit.

INSERT INTO assay_data (binder, value) VALUES
  ('H183/L072 VH G65P (antibody, name in Kabat numbering, V domains shown) VH: QVQLVESGGGLVQPGRSLRLSCAASGFTFSNAWMHWVRQAPGKGLEWVAQIKDKGNAYAAYYAPSVKPRFTISRDDSKNSIYLQMNSLKTEDTAVYYCHYVHYASASTVLPAFGVDAWGQGTTVTVSS VL: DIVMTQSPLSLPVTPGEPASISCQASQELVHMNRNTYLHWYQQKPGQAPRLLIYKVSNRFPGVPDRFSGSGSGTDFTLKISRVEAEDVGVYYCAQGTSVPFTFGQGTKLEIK', '0.9 fold'),
  ('H183/L072 VH D52aS (antibody, name in Kabat numbering, V domains shown) VH: QVQLVESGGGLVQPGRSLRLSCAASGFTFSNAWMHWVRQAPGKGLEWVAQIKSKGNAYAAYYAPSVKGRFTISRDDSKNSIYLQMNSLKTEDTAVYYCHYVHYASASTVLPAFGVDAWGQGTTVTVSS VL: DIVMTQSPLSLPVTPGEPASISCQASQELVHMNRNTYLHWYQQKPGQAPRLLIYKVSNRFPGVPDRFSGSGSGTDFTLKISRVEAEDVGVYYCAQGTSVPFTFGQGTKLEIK', '0 fold'),
  ('H183/L072 VH G52cD (antibody, name in Kabat numbering, V domains shown) VH: QVQLVESGGGLVQPGRSLRLSCAASGFTFSNAWMHWVRQAPGKGLEWVAQIKDKDNAYAAYYAPSVKGRFTISRDDSKNSIYLQMNSLKTEDTAVYYCHYVHYASASTVLPAFGVDAWGQGTTVTVSS VL: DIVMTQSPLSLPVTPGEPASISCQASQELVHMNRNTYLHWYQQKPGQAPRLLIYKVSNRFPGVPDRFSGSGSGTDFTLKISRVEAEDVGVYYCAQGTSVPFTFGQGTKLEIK', '1.1 fold');

Enquiry: Requested field: fold change of affinity. Item: H183/L072 VH Y58T (antibody, name in Kabat numbering, V domains shown) VH: QVQLVESGGGLVQPGRSLRLSCAASGFTFSNAWMHWVRQAPGKGLEWVAQIKDKGNAYAATYAPSVKGRFTISRDDSKNSIYLQMNSLKTEDTAVYYCHYVHYASASTVLPAFGVDAWGQGTTVTVSS VL: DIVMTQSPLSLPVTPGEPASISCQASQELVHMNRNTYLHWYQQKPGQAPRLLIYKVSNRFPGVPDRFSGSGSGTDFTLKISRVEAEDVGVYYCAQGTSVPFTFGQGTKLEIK
Return: 0.2 fold

Enquiry: Requested field: fold change of affinity. Item: H183/L072 VH A54M (antibody, name in Kabat numbering, V domains shown) VH: QVQLVESGGGLVQPGRSLRLSCAASGFTFSNAWMHWVRQAPGKGLEWVAQIKDKGNMYAAYYAPSVKGRFTISRDDSKNSIYLQMNSLKTEDTAVYYCHYVHYASASTVLPAFGVDAWGQGTTVTVSS VL: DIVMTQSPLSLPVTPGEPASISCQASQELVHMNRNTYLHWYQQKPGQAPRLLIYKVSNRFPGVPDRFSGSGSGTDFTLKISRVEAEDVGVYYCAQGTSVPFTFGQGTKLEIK
Return: 1 fold

Enquiry: Requested field: fold change of affinity. Item: H183/L072 VH Y58W (antibody, name in Kabat numbering, V domains shown) VH: QVQLVESGGGLVQPGRSLRLSCAASGFTFSNAWMHWVRQAPGKGLEWVAQIKDKGNAYAAWYAPSVKGRFTISRDDSKNSIYLQMNSLKTEDTAVYYCHYVHYASASTVLPAFGVDAWGQGTTVTVSS VL: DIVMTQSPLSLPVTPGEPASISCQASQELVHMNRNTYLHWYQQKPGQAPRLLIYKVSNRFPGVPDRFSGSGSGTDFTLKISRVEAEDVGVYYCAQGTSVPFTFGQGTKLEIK
Return: 0 fold
